Examples of compounds with documented percent response of DMSO control follow.
- assay_text: TOR pathway RTG branch CIT2 reporter changes – S. cerevisiae, GFP fusion, multiplex flow cytometry, primary screen (AID 1870);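 further: barcoded CIT2-GFP strain pooled with four other GFP strains with rapamycin as positive control; median GFP fluorescence per well over plate mean of DMSO wells so 100% = DMSO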
- conditions: S. cerevisiae CIT2-GFP expression, 3 h, at 10 µM, hits give high values
# number only, unit % dropped from output

Briefly, percent response of DMSO control measured for `CCN(CC)CCNC(=O)c1cc(Cl)c(N)cc1OC` : 89.6

Record Cc1cccc(CN2CCN(C(c3ccccc3)c3ccc(Cl)cc3)CC2)c1 (stereo unspecified) . Reported percent response of DMSO control: 98.2

Field percent response of DMSO control (entry `CC1CCN(C(=O)Oc2ccccc2)CC1` ) reads 103

Entry COCC(C)NC(=O)c1ccc(CN2CCc3ccccc3C2)cc1 (stereo unspecified) ; percent response of DMSO control = 103

compound `CCCC(=O)Nc1ccccc1NC(C)=O` , percent response of DMSO control observed: 108

Value of measured percent response of DMSO control for the entry `Cc1nonc1CN(C)C(=O)c1ccc(OC2CCN(Cc3ccccn3)CC2)cc1` : 113

percent response of DMSO control recorded for this compound, `COc1cc(CC(=O)NCCc2ccc(S(N)(=O)=O)cc2)cc(OC)c1OC` , is 102

Recorded percent response of DMSO control (compound `CCN(CC)C(=O)c1sc(NC(=O)c2c(OC)cccc2OC)c(C#N)c1C` ): 105

----------
- assay_text: Nile Red efflux blockade in pump-expressing yeast – validation compound set, multiplex, phenotypic, pilot screen (AID 588506);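 further: Nile Red retained in cells so higher fluorescence means more efflux inhibition; 0 = negative control wells and 1 = enniatin B 25 µM full block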
- conditions: S. cerevisiae pump-expressing triplex, Nile Red efflux flow cytometry; at 10 µM; hits give high values; the pumps come from Candida albicans
Our labelling divides records by efflux inhibition (fraction of control) into ranges: lower band = under -0.03, central band = from -0.03 up to 0.1, upper band = 0.1 and over

// query Please report the category associated with `CC(/C=C1\SC(=O)N(CCCC(=O)O)C1=O)=C\c1ccccc1` , nothing else.
// result central band

// query Lab note: which band did `O=C(/C=C/c1ccccc1)NCC1(c2ccccc2)CCOCC1` land in?
// result lower band

----------
Listing: aptamer binding inhibition of selected compounds
- subject_of_test: Beta-adrenergic receptor kinase 1 (Homo sapiens)
- assay_text: GRK2 binders displacing RNA aptamer, biochemical, validation, human GRK2, bead flow cytometry (AID 488806)
- conditions: bead-bound GRK2, FAM-aptamer displacement, at 10 µM, hits give high values
// note: answer is a bare numeric in %

Consider the reported aptamer binding inhibition for these compounds:
compound=Cc1cccc2c1CC(C)(C)N/C2=C\C(N)=O subject_of_test="Beta-adrenergic receptor kinase 1 (Homo sapiens)" experimental_value=0
compound="O=C1C(O)CC2c3ccccc3CC3(CCCC3)N12 (stereo unspecified)" subject_of_test="Beta-adrenergic receptor kinase 1 (Homo sapiens)" experimental_value=1
compound=Cc1cccc(C(=O)c2cccc(C)c2)c1 subject_of_test="Beta-adrenergic receptor kinase 1 (Homo sapiens)" experimental_value=0
compound=CC(=O)[C@@]1(O)CC[C@H]2[C@@H]3C[C@H](C)C4=CC(=O)CC[C@]4(C)[C@H]3CC[C@@]21C subject_of_test="Beta-adrenergic receptor kinase 1 (Homo sapiens)" experimental_value=4
compound="CC12CC(c3ccccc3O1)C(C(=O)N1CCOCC1)C(=O)N2 (stereo unspecified)" subject_of_test="Beta-adrenergic receptor kinase 1 (Homo sapiens)" experimental_value=6

Quick note, aptamer binding inhibition for `Cc1ccc(C(=O)NCCNC(=O)c2ccccc2)cc1` landed at 0

aptamer binding inhibition reading for `CCO/C([O-])=N/c1c[n+](N2CCOCC2)no1` : -1
